Origin of measurements: patent US8906906B2

biological target: His6-tagged HIV-1 integrase / flag-LEDGF/p75 interaction (Human immunodeficiency virus type 1 group M subtype B, UniProt P04585); construct: His6-tagged HIV-1 integrase; assay: AlphaScreen assay of LEDGF-integrase interaction inhibition; details: compounds tested from 0.1 up to 100 μM
pIC50: −log10 of the molar value.
Attribute: pIC50
endpoint-label: pIC50

> print(dat)
                                   molecule  endpoint.label  result
1  Cc1ccc(-c2nc(N3CCCCC3)nc(C)c2C(CC(C)(C)C)C(=O)O)cc1 (stereo not drawn)           pIC50    5.16
2  CCCC(C(=O)O)c1c(C)nc(-c2ccccc2)nc1N1CCCCCC1 (stereo not drawn)           pIC50    5.17
3  CCCC(C(=O)O)c1c(C)nc(-c2ccccc2)nc1-c1ccc2[nH]c(=O)[nH]c2c1 (stereo not drawn)           pIC50    4.15
4  CCCC(C(=O)O)c1c(C)nc(N2CCCCCC2)nc1-c1ccc(C)cc1 (stereo not drawn)           pIC50    4.95
5  CCCC(C(=O)O)c1c(C)nc(-c2ccccc2)nc1-c1ccc(C(C)C)cc1 (stereo not drawn)           pIC50    4.25
6  CCCC(C(=O)O)c1c(C)nc(N2CCCCC2)nc1-c1ccccc1 (stereo not drawn)           pIC50    4.90
7  CCCC(C(=O)O)c1c(C)nc(N2CCCCC2)nc1-c1ccc(Cl)cc1F (stereo not drawn)           pIC50    4.97
8  CCCC(C(=O)O)c1c(C)nc(N(C)C2CCCCC2)nc1-c1ccc(C)cc1 (stereo not drawn)           pIC50    4.60
9  CCCC(C(=O)O)c1c(C)nc(N2CCCCC2)nc1-c1ccc(F)cc1F (stereo not drawn)           pIC50    4.76
